Catalogue of compounds with associated GI50
tested on: COLO 205 colon; test: NCI tumour cell line growth inhibition, 48 h

Lab book: GI50 of `COc1ccc(N=N/C(=N\NC(=O)c2cc(Br)ccc2O)c2ccc(N(CCC#N)CCC#N)cc2OC)cc1` noted as 50.6 µg/mL

Looking up `Clc1ccc(-c2nc3c(-c4ccccc4)nc(-c4ccccc4)cn3c2-c2ccc(Cl)cc2)cc1` , I see its GI50 listed as > 100000 nM

Memo: `Cc1ccc(S(=O)(=O)OCC(=O)Nc2ccc(C(=O)O)c(O)c2)cc1` , reported GI50: 113000 nM

So for Nc1nc(=S)c2ncn(C3OC(CO)C(O)C3O)c2[nH]1 (stereo not given) , the logged GI50 turned out to be 2180 nM

// recorded GI50 for COc1ccc(C2=NN(C=O)C(c3ccc(OS(=O)(=O)c4ccc(C)cc4)c(OC)c3)C2)cc1 (stereo not given) : 8440 nM

Next:
Recorded result, CCSc1nc(NC(C)c2ccccc2)c2cnn(CO)c2n1 (stereo not given) , GI50: > 100000 nM

Lab note: `COc1ccc(/C(=C/c2ccc3ccccc3c2)c2nn[nH]n2)cc1OC` gave GI50 of 2270 nM

So, `c1ccc(COCC[P+](c2ccccc2)(c2ccccc2)c2ccccc2)cc1` ? Its GI50 was 868 nM

compound `O=C(NCCCl)NCCN1c2nc3ccccc3cc2Sc2cc3ccccc3nc21` , GI50 observed: 1320 nM

GI50 recorded for this compound, `CN1C(=O)/C(=C2\S/C(=N\c3nnc(-c4ccccc4)o3)NC2=O)c2ccccc21` , is > 100000 nM

---

test system: SK-OV-3 ovarian; assay: NCI tumour cell line growth inhibition, 48 h; in the data active means GI50 below about 0.43 µM; inactive means the rest
Select the correct class. Options are active, inactive and nothing else.

# fetch the recorded call for `O=C(CN1CCN(CCN2C(=O)c3cccc4cccc(c34)C2=O)CC1)Nc1ccc2ncsc2c1` here inactive

// outcome(item) with item = `CC(C)C(=O)Nc1ccc(-c2nc(-c3cccc(OCCN4CCOCC4)c3)c(-c3ccnc(Br)c3)[nH]2)cc1` inactive

Assay result, entry CC(=O)NC(CS)C(=O)O (stereo not given) — outcome? inactive

Hey, what did the test say about `COc1ccc(CN2C(=O)/C(=C\C(=O)c3ccc(OCCN4CCCC4)cc3)c3ccccc32)cc1` ? inactive

Status in this test for `Cc1cc(O[C@@H]2O[C@@H](C)[C@H](O)[C@@H](O)[C@H]2O)c2c3c(c(O[C@@H]4O[C@@H](C)[C@H](O)[C@@H](O)[C@H]4O)cc2c1)C(=O)c1c(O)cccc1C3=O` ? inactive

---

tested on: SNB-75 CNS; experiment: NCI tumour cell line growth inhibition, 48 h
Where a SMILES comes first, the peptide text is derived from it. The star is where a group is joined. Boc = CC(C)(C)OC(=O)*
// TGI lookup, one value per entry

// below: answered molecules
Reported TGI for `O=[N+]([O-])c1ccc(Cc2nc3cc4ccccc4cc3[nH]2)cc1C(F)(F)F` was 37.3 µM

Lab note: `CC[O-].CC[O-].COc1ccc(C(=O)[CH-]C(C)=O)cc1OC.COc1ccc(C(=O)[CH-]C(C)=O)cc1OC.[Ti+4]` gave TGI of > 100 µM

More entries:
Reported TGI ( CC(=O)c1cc(CC2Cc3cc4c(cc3C2=O)CCC4)cc2c1CCC2 (configuration not stated) ) = > 100 µM

Per the record, CC12CCCC(C#N)(C1)OC2=O (configuration not stated) has TGI of > 100 µM

The value of TGI measured for the molecule CC(NC(=O)C1CCCN1C(=O)CNC(=O)OC(C)(C)C)C(=O)O (stereo not drawn) (Boc-Gly-Pro-Ala-OH; configuration not given here) turned out to be > 100 µM

---

Entries and their TGI
system: HCC-2998 colon; assay: NCI tumour cell line growth inhibition, 48 h
Field: numeric (µM). Do not append units.

The recorded TGI for entry `CSC1=C(SC)C(=O)c2cn(C)c(=O)cc2C1=O` equals 35.8

Next:
The reported TGI of the compound `CC(C)C(=O)Nc1ccc(-c2nc(-c3cccc(OCCN4CCOCC4)c3)c(-c3ccnc(Br)c3)[nH]2)cc1` was 11.4

The measured TGI associated with CCC(=O)N(c1ccccc1)C(C)CN1CCC(O)(c2cccc(C(F)(F)F)c2)CC1 (stereo not given) reads 57.3

Given item `O=c1ccn(Cc2ccccc2CCl)c(=O)[nH]1` , the value recorded as its TGI is 59

So, COc1cccc(C2c3cc4c(cc3OC(NNC(N)=O)C2C)OCO4)c1O (stereo not given) ? Its TGI was 35.4

Lookup result for Clc1ccc(C2CC(c3cccc(Nc4ccncc4)c3)=NN2c2ccccc2)cc1 (stereo not given) ; measured TGI: 3.06

---

system: UACC-257 melanoma; test: NCI tumour cell line growth inhibition, 48 h
Catalogue of TGI readings, one per entry.

Look over these answered cases.
Reported TGI of `CC(C)C(=O)Nc1ccc(-c2nc(-c3cccc(OCCN4CCOCC4)c3)c(-c3ccnc(Br)c3)[nH]2)cc1` : 5.68 µM

Lab note: `Fc1ccc(Oc2nc3ccccc3nc2-c2ccccc2)cc1` gave TGI of > 100 µM

Record `COC(=O)[C@H](C)NC(=O)C1(CNC(=O)[C@H](C)NC(=O)OC(C)(C)C)Cc2ccccc2-c2ccccc2C1` , field TGI: > 78.9 µM

New cases:
For this compound ( `CC(C)COC(=O)c1ccc(N=Cc2ccc(C=Nc3ccc(C(=O)OCC(C)C)cc3)cc2)cc1` ), measured TGI is > 100 µM

Value of TGI reported for the compound `CC(C(=O)NCCNC(=O)CCCC(=O)N(C)O)C(=O)NCCNC(=O)CCCC(=O)N(C)O` is > 100 µM

Sample N#CC(C(=O)CCC(=O)Nc1ccc(Cl)cc1)c1ccc(Cl)cc1 (centres undefined) ; TGI observed: > 100 µM

# compound `Cc1ccccc1C=NC12CC3CC(CC(C3)C1)C2` ; its TGI = > 100 µM

Kindly note the recorded TGI for C=CCOC1CC(n2cnc3c(N)ncnc32)OC1CO (centres undefined) , which is > 100 µM

Recorded result, `COC(=O)[C@H](Cc1ccccc1)NNC(=O)c1csc([C@@H](C[C@H](C(C)C)N(C)C(=O)[C@@H](NC(=O)[C@H]2CCCCN2C)C2CC2)OC(C)=O)n1` , TGI: > 100 µM

---

system: IGROV1 ovarian; experiment: NCI tumour cell line growth inhibition, 48 h; in the data active = GI50 below about 0.43 µM; inactive = the rest
Respond only with the outcome that fits, drawn from active, inactive

Field: outcome | Entry: COc1ccc2nc3cc(Cl)ccc3c(NCCNCC(O)CO)c2c1 (stereo unspecified) inactive

# fetch the recorded call for `CCCCCCCCCCCCNC(=O)N[C@H](C(=O)N[C@H]1/C=C/CCNC(=O)/C=C/[C@H](C)NC1=O)C(C)C` here active

Look up the recorded call for `CC(C)n1nc(C#Cc2cccc(O)c2)c2c(N)ncnc21` in this test. inactive

Hi, do you know how `Cc1cncc(-c2nc(NCCc3c[nH]c4ccccc34)c3ncn(C(C)C)c3n2)c1` came out in this test? inactive

Please let me know the test result on file for `COc1cc(-c2cc(-c3cccs3)c(C#N)c(N3CCOCC3)n2)cc(OC)c1OC` . inactive

Next:
Would you mind telling me which call this test gave `NS(=O)(=O)c1ccc(N=Nc2c(O)[nH]c3ccc(C(=O)NCCc4cnc[nH]4)cc23)cc1` ? inactive

---

system: HCT-116 colon; assay: NCI tumour cell line growth inhibition, 48 h
Rule: TGI under 10 µM gives N, otherwise Y.

Some solved cases for reference:
In plain terms: is recorded TGI at least 10 µM for `COC(=O)C(=NNc1ccccc1[N+](=O)[O-])C(=O)OC` ? Y

Hello, I need to know if `O=c1c2cccc(F)c2sc2c(NCCCNCCO)nc3ccccc3c12` has measured TGI not below 10 µM. Thanks! N

Answer whether TGI of CC1(C)CCCC2CC2CCC(C)(C)C1=O (configuration not stated) is greater than or equal to 10 µM. Y

Given `CC(=O)N(C)c1cc(NCc2ccccc2)ccc1OCc1ccccc1` , state whether its TGI is at least 10 µM. Y

Evaluate COc1cccc(C2c3cc4c(cc3OC(NNC(N)=O)C2C)OCO4)c1O (configuration not stated) : TGI at minimum 10 µM? Y

Exam item: decide whether the reported TGI for `CCCCCCCCCCCCNC(=O)N[C@H](C(=O)N[C@H]1/C=C/CCNC(=O)/C=C/[C@H](C)NC1=O)C(C)C` is at least 10 µM. N

Okay, now this compound:
Please indicate if the recorded TGI for `COc1ccc(C(OC(=O)[C@H](O[Si](C)(C)C(C)(C)C)[C@@H](NC(=O)c2ccccc2)c2ccccc2)c2ccc(OC)cc2)cc1` meets or exceeds 10 µM. Y

---

tested on: SR leukemia; assay: NCI tumour cell line growth inhibition, 48 h; in the data active = GI50 below about 0.43 µM; inactive = the rest
Hi there, use one of these labels in your reply, thanks! active, inactive

For orientation, consider the following solved cases.
Called result for `O=C(/C=C/c1ccco1)Nc1ncc(Cc2cccc(C(F)(F)F)c2)s1` active

What did the test return for `Cc1ccc(S(=O)(=O)OCC(=O)Nc2ccc(C(=O)O)c(O)c2)cc1` ? active

// param item: `Clc1ccc(OCc2nnc3sc(SSc4nn5c(COc6ccc(Cl)cc6)nnc5s4)nn23)cc1` ; yields the recorded call inactive

Could you kindly confirm the outcome this assay logged for `C[C@@H](Oc1ccc(Oc2cnc3ccc(Cl)cc3n2)cc1)C(=O)O` ? inactive

Lab log entry: `CON=C1C[C@]2(C[C@@H]3C[C@@H](C/C=C(\C)C[C@@H](C)/C=C/C=C4\CO[C@@H]5[C@H](O)C(C)=C[C@@H](C(=O)O3)[C@]45O)O2)O[C@H](/C(C)=C/C(C)C)[C@H]1C` — outcome as called in the assay? inactive

More entries:
How did this test come out for `CCC1=C[C@@H]2CN(C1)Cc1c([nH]c3ccccc13)[C@@](C(=O)OC)(c1cc3c(cc1OC)N(C)[C@H]1[C@@](O)(C(=O)OC)[C@H](OC(C)=O)[C@]4(CC)C=CCN5CC[C@]31[C@@H]54)C2` ? active

Test call, this compound: COc1ccc(C2=NN(C=O)C(c3ccc(OS(=O)(=O)c4ccc(C)cc4)c(OC)c3)C2)cc1 (configuration not stated) inactive
